The origin of these recorded values is ChEMBL document CHEMBL1124792.

tested on: Staphylococcus aureus; test: In vitro antibacterial activity against Staphylococcus aureus 50774; assay type: functional
Lab note: anything with MIC below 0.05 µg/mL is marked MET; values at 0.05 µg/mL or higher are marked NOT MET.

Take a look at these entries with their results.
[[record]]
compound = "CC1CN(c2c(F)c(N)c3c(=O)c(C(=O)O)cn(C4CC4)c3c2F)CCN1 (centres undefined)"
class = "MET"

[[record]]
compound = "CN1CCN(c2c(F)cc3c(=O)c(C(=O)O)cn(C4CC4)c3c2F)CC1"
class = "NOT MET"


MIC under 0.05 µg/mL? Item: Nc1c(F)c(N2CCNC(CF)C2)c(F)c2c1c(=O)c(C(=O)O)cn2C1CC1 (centres undefined)
MET

Try this compound next: O=C(O)c1cn(C2CC2)c2c(F)c(N3CCNCC3)c(F)c(F)c2c1=O
NOT MET

Try this compound next: C[C@@H]1CN(c2c(F)c(N)c3c(=O)c(C(=O)O)cn(C4CC4)c3c2F)C[C@@H](C)N1 (relative stereo)
MET

Try this compound next: C[C@H]1CN(c2c(F)c(N)c3c(=O)c(C(=O)O)cn(C4CC4)c3c2F)CCN1
MET

Try this compound next: CC1CN(c2c(F)c(O)c3c(=O)c(C(=O)O)cn(C4CC4)c3c2F)CCN1 (centres undefined)
NOT MET

Try this compound next: CC1COc2c(N3CCN(C)CC3)c(F)cc3c(=O)c(C(=O)O)cn1c23 (centres undefined) [OFLOXACIN]
NOT MET
